Below, each entry is listed alongside its reported TGI.
- System: HOP-62 NSCLC
- ASSAY DETAILS: NCI tumour cell line growth inhibition, 48 h

Consider the compound `O=Cc1ncc(-c2ccc(C(F)(F)F)cc2)c(NC2CCCCCC2)n1` . State its measured TGI. > 10 µM

Consider the compound `[Ce+3].[Cl-].[O-]/N=C(\c1ccccc1)c1ccccn1.[O-]/N=C(\c1ccccc1)c1ccccn1.[O-]/N=C(\c1ccccc1)c1ccccn1` . State its measured TGI. > 100 µM

Consider the compound `Oc1ccc(Cl)cc1Cc1cc(Cl)cc(Cc2cc(Cl)ccc2O)c1O` . State its measured TGI. 10.9 µM

Consider the compound `NC(N)=NS(=O)(=O)c1ccc(Nc2c3ccccc3nc3ccc(C(=O)Nc4ccc(S(N)(=O)=O)cc4)cc23)cc1` . State its measured TGI. > 100 µM

Consider the compound C[C@@]12CCC[C@@](C)(C(=O)O)C1CC[C@]13C=C(CO)[C@](O)(CCC12)C3 (stereo partly drawn) . State its measured TGI. > 100 µM

Consider the compound `N#Cc1ccc(Nc2cnc3cc(N)ccc3n2)cc1` . State its measured TGI. > 100 µM

Consider the compound CC1C(=O)CCC1C(Sc1ccccc1)(Sc1ccccc1)Sc1ccccc1 (stereo not drawn) . State its measured TGI. > 100 µM

Consider the compound `Clc1ccc(-c2nc(-c3c[nH]c4ncccc34)cs2)cc1` . State its measured TGI. > 100 µM

###

- System: NCI/ADR-RES ovarian
- ASSAY DETAILS: NCI tumour cell line growth inhibition, 48 h
MEASUREMENT KIND: TGI

Example entries and their recorded answers appear below.
# SAMPLE SMILES, ASSAY SYSTEM, TGI
data = [
    ("O=C(Nc1cccnc1)c1cccs1", "NCI/ADR-RES ovarian", "> 100 µM"),
    ("CC(C)[C@@H]1NC(=O)[C@]2(C)CSC(=N2)c2csc(n2)CNC(=O)C[C@@H](/C=C/CCS)OC1=O", "NCI/ADR-RES ovarian", "> 100 µM"),
]

As a next step, examine the molecule that follows.
Specify TGI for `Nc1cc(OCc2ccccc2)c(OCc2ccccc2)cc1C=O` , system NCI/ADR-RES ovarian. > 100 µM

###

Below, each entry is listed alongside its reported TGI.
- System: SF-539 CNS
- ASSAY DETAILS: NCI tumour cell line growth inhibition, 48 h

Example entries and their recorded answers appear below.
# MOLECULE, MEASUREMENT KIND, RESULT
data = [
    ("COc1ccc(Cc2nc3cc(Cl)ccc3o2)cc1", "TGI", "> 100 µM"),
    ("C[C@@]12CCC[C@@](C)(C(=O)O)C1CC[C@]13C=C(CO)[C@](O)(CCC12)C3 (stereo partly specified)", "TGI", "> 100 µM"),
    ("CCOc1ccc(/C=N/Nc2cc(C)nc3ccc(Cl)cc23)cc1", "TGI", "3.4 µM"),
    ("Nc1ccc(S(=O)(=O)Nc2nc3ccccc3nc2Nc2ccc(S(N)(=O)=O)cc2)cc1", "TGI", "> 100 µM"),
]

Consider the molecule `CC(=O)OC[C@@]12CC[C@H]3C(C)(C)CCC[C@]3(C)[C@H]1C[C@@H](C1=CC(=O)O[C@H]1O)O2` . State its measured TGI. 5.28 µM

Consider the molecule `Cc1ccc(/C=C/C(=O)c2sc(C(N)=S)nc2C)cc1` . State its measured TGI. > 100 µM

Consider the molecule C[CH2][Sn]1([CH2]C)[O]C2C(O)OC(CO)C(O)C2[O]1 (stereo unspecified) . State its measured TGI. 32.5 µM

###

- System: HS 578T breast
- ASSAY DETAILS: NCI tumour cell line growth inhibition, 48 h
Below, each entry is listed alongside its reported TGI.
Express the result in µM but write the number alone.

Example entries and their recorded answers appear below.
# COMPOUND, TGI / µM
rows = [
    ("C[C@]1(O)CC(=O)c2c(c(-c3ccc4cc5c(c(O)c4c3O)C(=O)C[C@@](C)(O)C5)c3cccc(O)c3c2O)C1", 88),
    ("CC(C)(C)OC(=O)N1C(C2=COc3ccccc3O2)=COc2cccnc21", 19.1),
    ("CNC(=O)c1cc(Oc2ccc3nc(NC(=O)c4cc(C(F)(F)F)cc(C(F)(F)F)c4)sc3c2)ccn1", 13.3),
    ("Oc1c(Cl)cc(C(c2cc(Cl)c(O)c(Cl)c2)C(c2cc(Cl)c(O)c(Cl)c2)c2cc(Cl)c(O)c(Cl)c2)cc1Cl", 57.4),
    ("C/C(Sc1ccccc1)=C1/CCCN(Cc2ccccc2)C1", 41.4),
    ("Oc1ccc(Cl)cc1Cc1cc(Cl)cc(Cc2cc(Cl)ccc2O)c1O", 7.71),
    ("O=C(c1ccc(F)c(F)c1Nc1ccc(I)cc1F)N1CC(O)([C@H]2CCCCN2)C1", 33.7),
]

As a next step, examine the compound that follows.
Consider the compound CC(C)c1ccc2c(c1)[C@@]1(C)CC[C@H](C)C(C)(C)C1CC2 (stereo partly drawn) . State its measured TGI. 47.4

###

- Tested on: UACC-257 melanoma
- ASSAY DETAILS: NCI tumour cell line growth inhibition, 48 h
Below, each entry is listed alongside its reported TGI.

Example entries and their recorded answers appear below.
# COMPOUND, TGI
measured = [
    ("C/C(=C/CNc1ncnc2c1ncn2CCC(=O)O)CO", "> 100 µM"),
    ("NC(N)=NS(=O)(=O)c1ccc(Nc2c3ccccc3nc3c(C(=O)N4CCN(CCO)CC4)ccc(Cl)c23)cc1", "> 100 µM"),
    ("C=CC1(c2ccc(Cl)c(Cl)c2)OCCO1", "> 100 µM"),
    ("CCCCCCCCC(=O)CCCCCCCCC(=O)O", "> 100 µM"),
    ("Cn1c(=O)c(Sc2ccccc2F)cc2cnc(NC3CCOCC3)nc21", "> 25 µM"),
    ("Cc1c(NC(=O)CCCl)c(=O)oc2c(C)c3occc(=O)c3cc12", "> 100 µM"),
    ("Nc1ccc(-c2nc3cc(F)ccc3s2)cc1Br", "> 100 µM"),
    ("O=C1OCC2=C1C(c1cccc([N+](=O)[O-])c1)c1cc3c(cc1N2CCO)CCC3 (configuration not stated)", "> 50 µM"),
    ("C/C(=C\\CNc1ncnc2nc(Cl)[nH]c12)CO", "> 100 µM"),
    ("N#Cc1ccc(Nc2cnc3cc(N)ccc3n2)cc1", "> 100 µM"),
]

Consider the compound `CN(C)S(=O)(=O)n1ccnc1` . State its measured TGI. > 100 µM

Consider the compound `Brc1ccc(-c2ccc(-c3ccc(-c4ccc(Br)s4)s3)s2)s1` . State its measured TGI. > 100 µM

###

Below, each entry is listed alongside its reported TGI.
- Tested on: DMS 273 small cell lung
- ASSAY DETAILS: NCI tumour cell line growth inhibition, 48 h

Example entries and their recorded answers appear below.
# SAMPLE SMILES, TGI
data = [
    ("CCOC(=O)NC(=O)c1cn(CCCCCCCCCCC(=O)N2CCN(CCn3cc(C(=O)NC(=O)OCC)c(=O)[nH]c3=O)CC2)c(=O)[nH]c1=O", "> 100 µM"),
    ("CCC[CH2][Sn]([CH2]CCC)([O]C(=O)c1cc(OC)c(OC)c(OC)c1)[O]C(=O)c1cc(OC)c(OC)c(OC)c1", "2.95 µM"),
]

As a next step, examine the compound that follows.
Consider the compound `CC(=O)N(/N=C\c1ccc([N+](=O)[O-])cc1)c1ccccc1` . State its measured TGI. > 100 µM

###

- System: OVCAR-8 ovarian
- ASSAY DETAILS: NCI tumour cell line growth inhibition, 48 h
Below, each entry is listed alongside its reported TGI.
Express the result in µM but write the number alone.

Example entries and their recorded answers appear below.
# COMPOUND, ASSAY SYSTEM, RECORDED NUMBER
rows = [
    ("COC(=O)C(=C\\Sc1ccccc1)/C=C/C(=O)OC(C)(C)C", "OVCAR-8 ovarian", 31.2),
    ("COc1cccc(/C=N/[N-]C(N)=O)c1[O-].[Cu+2].[OH3+].c1cnc2c(c1)ccc1cccnc12", "OVCAR-8 ovarian", 31.9),
    ("COC(=O)C1=C2C3=C(C(=O)c4ccccc4C3=O)N(Cc3ccccc3)C2(OC(C)=O)C=CC1=O (stereo not given)", "OVCAR-8 ovarian", 83),
    ("COc1c(Nc2ncc(Cl)c(N[C@@H]3[C@H]4C=CC(C4)[C@@H]3C(N)=O)n2)ccc2c1CC[C@@H](N1CCOCC1)CC2", "OVCAR-8 ovarian", 29.6),
    ("CCCCN(CCCC)c1cc(C(=O)CCCCCN)c2ccccc2n1", "OVCAR-8 ovarian", 4.61),
]

As a next step, examine the compound that follows.
Consider the compound `CC(=O)OC[C@@]12CC[C@H]3C(C)(C)CCC[C@]3(C)[C@H]1C[C@@H](C1=CC(=O)O[C@H]1O)O2` . State its measured TGI. 13.7
